# assayed system: Recombinant human JAK1 catalytic domain (Homo sapiens (Human))
# Sequence (P23458 850-1154): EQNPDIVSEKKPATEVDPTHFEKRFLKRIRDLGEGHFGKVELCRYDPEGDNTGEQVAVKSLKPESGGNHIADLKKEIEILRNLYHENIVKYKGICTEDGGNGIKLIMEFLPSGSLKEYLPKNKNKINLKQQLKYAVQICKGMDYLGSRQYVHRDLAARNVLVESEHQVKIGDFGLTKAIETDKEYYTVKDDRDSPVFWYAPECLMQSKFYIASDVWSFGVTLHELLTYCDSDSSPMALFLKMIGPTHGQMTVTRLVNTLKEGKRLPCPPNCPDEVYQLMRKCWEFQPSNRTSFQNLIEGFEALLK
# protocol notes: JAK1 inhibition assay
# Assay type: biochemical
# stated conditions: semi-quantitative score
Listed below: IC50 values for each entry.

O=C(Nc1ccc(-c2cccc3nc(NC(=O)C4CC4)nn23)cc1)c1ccccn1 [Compound 55] :: 101 to 500 nM
O=C(Nc1nc2cccc(-c3ccc(OCc4ccc(-c5cn[nH]c5)nc4)cc3)n2n1)C1CC1 [Compound 166] :: < 100 nM
CN(C)C1CN(C(=O)c2ccc(-c3cccc4nc(NC(=O)C5CC5)nn34)cc2)C1 [Compound 327] :: 101 to 500 nM
O=C(Nc1nc2cccc(-c3ccc(C(=O)N4C[C@@H]5C[C@H]4CO5)cc3)n2n1)C1CC1 [Compound 217] :: 101 to 500 nM
O=C(Nc1nc2cccc(-c3ccc(CN4CCN(c5ccccn5)CC4)cc3)n2n1)C1CC1 [Compound 142] :: 101 to 500 nM

The compound CC1(C)COCCN1C(=O)c1ccc(-c2cccc3nc(NC(=O)C4CC4)nn23)cc1 [Compound 216] , when measured on Recombinant human JAK1 catalytic domain (Homo sapiens (Human)), yielded IC50 of 101 to 500 nM

The compound O=C(Nc1nc2cccc(-c3ccc(NCc4cccnc4)nc3)n2n1)C1CC1 [Compound 170] , when measured on Recombinant human JAK1 catalytic domain (Homo sapiens (Human)), yielded IC50 of 501 to 1000 nM

The compound O=C(Nc1nc2cccc(-c3ccc(CN4CC(F)(F)C4)cc3)n2n1)C1CC1 [Compound 315] , when measured on Recombinant human JAK1 catalytic domain (Homo sapiens (Human)), yielded IC50 of 101 to 500 nM

The compound CCOC1CCN(C(=O)c2ccc(-c3cccc4nc(NC(=O)C5CC5)nn34)cc2)CC1 [Compound 294] , when measured on Recombinant human JAK1 catalytic domain (Homo sapiens (Human)), yielded IC50 of 101 to 500 nM

The compound O=C(Nc1nc2cccc(-c3ccc(C(=O)N4CCCC4)cc3)n2n1)C1CC1 [Compound 19] , when measured on Recombinant human JAK1 catalytic domain (Homo sapiens (Human)), yielded IC50 of < 100 nM

The compound O=C(Nc1nc2cccc(-c3ccc(NS(=O)(=O)CCOc4ccccc4)cc3)n2n1)C1CC1 [Compound 122] , when measured on Recombinant human JAK1 catalytic domain (Homo sapiens (Human)), yielded IC50 of < 100 nM

---

# Tested on: JAK-STAT signalling in HeLa cells
# protocol notes: JAK-STAT signalling assay (OSM-triggered pSTAT1(2)-luciferase reporter in HeLa cells)
# Format: cell-based
# stated conditions: Homo sapiens; HeLa cells, OSM-triggered pSTAT1(2)-luciferase reporter; read-out: STAT signalling EC50
endpoint label: EC50

O=C(Nc1nc2cccc(-c3ccc(CN4CCOCC4)cc3)n2n1)C1CC1 :: > 1000 nM
O=C(NCCc1ccc(C(F)(F)F)cc1)c1ccc(-c2cccc3nc(NC(=O)C4CC4)nn23)cc1 :: 101 to 500 nM
CCCc1ccc(S(=O)(=O)Nc2ccc(-c3cccc4nc(NC(=O)C5CC5)nn34)cc2)cc1 :: > 1000 nM
Cc1noc(C)c1CCOc1ccc(-c2cccc3nc(NC(=O)C4CC4)nn23)cc1 :: 101 to 500 nM
Cc1cc(COc2ccc(-c3cccc4nc(NC(=O)C5CC5)nn34)cc2)n(C)n1 :: > 1000 nM
O=C(Nc1nc2cccc(-c3ccc(CN4CCN(CC(F)(F)F)CC4)cc3)n2n1)C1CC1 :: 501 to 1000 nM
O=C(Nc1nc2cccc(-c3ccc(OCc4ccc[n+]([O-])c4)cc3)n2n1)C1CC1 :: > 1000 nM

Could you now consider this next compound?
compound "N#CC1CCN(C(=O)c2ccc(-c3cccc4nc(NC(=O)C5CC5)nn34)cc2)CC1" , EC50 observed: > 1000 nM
